assay: relative permittivity at zero frequency (dimensionless); conditions: 308.15 K; 101.33 kPa; Liquid; AC method
# relative permittivity at zero frequency values compiled below
// print number alone

Here is how some molecules turned out for relative permittivity at zero frequency.
INSERT INTO results (smiles_input, endpoint_value) VALUES
  ('COCCOCCOCCOCCOC', 7.55),
  ('COCCOCCOCCOC', 7.38),
  ('COCCOCCOC', 7.12),
  ('COCCOC', 6.75);

Proceeding to the next molecule to report its relative permittivity at zero frequency.
Task: For the molecule shown here, CCCCCCC , give the reported relative permittivity at zero frequency.
Output: 1.92
